Reference source for all entries: the supplement of paper PMC9170038

# System: MS2 coat protein
# assay protocol: apparent KD of MS2 coat protein; designed switch direction (-1 OFF switch, 1 ON switch): -1; higher = weaker reporter binding
# experimental conditions: input ligand: FMN 200 uM
property: apparent KD of MS2 coat protein (nM)
A number alone suffices; assume nM.

Consider the reported apparent KD of MS2 coat protein for these sequences:
| polymer sequence | experimental system | measurement |
| --- | --- | --- |
| GUGAGCAGACGGAGAUCCAACAUGAGGAUCACCCAUGUCUCACAAGCUUUUUGCUCGUCUUAUCCUCCUCUGUUCAC [Elimod 22 - Jieux - Sensor, turn-off variant 1] (Eterna round: R97, puzzle: Sensor, turn-off variant 1) | MS2 coat protein | 15.8 |
| UAACGUGGCCUGAUCCUCCCUAACAUGAGGAUCACCCAUGUCUAGGAUAUCCGAACAAACAACGAGGAGAAGGAGACGAAACAU [Veleedan] (Eterna round: R96, puzzle: Exclusion NG 3) | MS2 coat protein | 37.5 |
| AAACGGGUGUCCUCGUUUUCAACAUGAGGAUCACCCAUGUUCGAGGAUAUCCAAUAAGCUCUUCAGGAGAAGGCGAACAUAAAA [Anenence] (Eterna round: R96, puzzle: Exclusion NG 3) | MS2 coat protein | 20.1 |
| UUUUUGUCAGGAUAUGCAUGUUUUUUUUUUUUUUUUUUCAUGCAGAAGGGACAUGAGGAUCACCCAUGUAGUUU [Ex4 - 3 - 10] (Eterna round: R96, puzzle: Exclusion 4) | MS2 coat protein | 53.7 |

Next:
Request: apparent KD of MS2 coat protein, test system MS2 coat protein, entry UAAGCUCUGUCAGGAUAUCCCUGUAAACGCAACGGAGAAGGGACAUGAGGAUCACCCAUGUGCGGGCCCAACGCGCUCGGGUCC [Dilacesole] (Eterna round: R96, puzzle: Exclusion NG 1)
63.6
